- Tested on: RSV Long strain
- MEASUREMENT DESCRIPTION: Viral cytopathic effect (CPE) assay, RSV Long strain
- Format: cell-based, Respiratory Syncytial Virus
- CONDITION PARAMETERS: human respiratory syncytial virus, 144 h, cell viability after 6 days (Cell Counting kit-8)
# reported log10(EC50); entries follow
VALUE TYPE: log10(EC50) (log10 of the value in nM)

>  <COMPOUND>
O=C1N(Cc2nc3cc(Cl)ccc3n2CCS(=O)(=O)C2CC2)c2cnccc2C12CC2 [Example 36-2]

>  <TARGET>
RSV Long strain

>  <OBS VALUE>
0.90

$$$$
>  <COMPOUND>
CS(=O)(=O)CCc1c(CN2C(=O)C3(CC3)c3ccncc32)[nH]c2cc(Cl)ccc12 [Example 32-2]

>  <TARGET>
RSV Long strain

>  <OBS VALUE>
0.70

$$$$
>  <COMPOUND>
CS(=O)(=O)CCCn1c(CN2C(=O)C3(CC3)c3cccnc32)cc2cc(Cl)ccc21 [Example 22-2]

>  <TARGET>
RSV Long strain

>  <OBS VALUE>
1.94

$$$$
>  <COMPOUND>
O=C1N(Cc2cc3cc(Cl)ccc3n2CCCN2CCCS2(=O)=O)c2cnccc2C12CC2 [Example 7-10]

>  <TARGET>
RSV Long strain

>  <OBS VALUE>
1.46

$$$$
>  <COMPOUND>
CC(=O)N1CCN(CCn2c(CN3C(=O)C4(CC4)c4ccncc43)cc3cc(Cl)ccc32)CC1 [Example 26-1]

>  <TARGET>
RSV Long strain

>  <OBS VALUE>
1.40

$$$$
>  <COMPOUND>
O=C1N(Cc2nc3cc(Cl)ccc3n2CCC2COC2)c2cnccc2C12CC2 [Example 38-2]

>  <TARGET>
RSV Long strain

>  <OBS VALUE>
0.48

$$$$
>  <COMPOUND>
CS(=O)(=O)CCn1c(CN2C(=O)C3(CC3)c3ccncc32)cc2cc(F)ccc21 [Example 1-4]

>  <TARGET>
RSV Long strain

>  <OBS VALUE>
2.28

$$$$
>  <COMPOUND>
CC(=O)NCCn1c(CN2C(=O)C3(CC3)c3ccncc32)cc2cc(Cl)ccc21 [Example 26-3]

>  <TARGET>
RSV Long strain

>  <OBS VALUE>
1.40

$$$$

---

- MEASUREMENT DESCRIPTION: Single dose PK in male ICR mouse (IV and PO)
- Format: in vivo
- CONDITION PARAMETERS: mouse, plasma; male ICR mice, PO 25 mg/kg
# reported AUC(0-t); entries follow
VALUE TYPE: AUC(0-t)

>  <COMPOUND>
CS(=O)(=O)CCn1c(CN2C(=O)C3(CC3)c3ccncc32)cc2cc(Cl)cnc21 [Example 2-6]

>  <VALUE TYPE>
AUC(0-t)

>  <OBS VALUE>
10200 ng·h/mL

$$$$
>  <COMPOUND>
CS(=O)(=O)CCn1c(CN2C(=O)C3(CC3)c3ccncc32)nc2cc(Cl)ccc21 [Example 34-1]

>  <VALUE TYPE>
AUC(0-t)

>  <OBS VALUE>
3280 ng·h/mL

$$$$
>  <COMPOUND>
CS(=O)(=O)CCn1c(CN2C(=O)C3(CC3)c3ccncc32)nc2cc(Cl)cc(F)c21 [Example 37-1]

>  <VALUE TYPE>
AUC(0-t)

>  <OBS VALUE>
9290 ng·h/mL

$$$$
